# assayed_target: T1, soluble human TNF-alpha (human, UniProt P01375 77-233)
# T1 construct: Recombinant, bought (Invitrogen PHC3015 in some assays); also called hs-TNF-alpha; h-TNF-alpha
# T1 sequence (P01375 77-233 limits assumed): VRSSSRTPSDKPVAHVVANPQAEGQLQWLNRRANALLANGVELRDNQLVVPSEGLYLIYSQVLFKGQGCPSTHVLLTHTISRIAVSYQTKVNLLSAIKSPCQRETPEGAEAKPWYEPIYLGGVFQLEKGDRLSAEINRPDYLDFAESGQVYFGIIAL
# method_summary: competition ELISA: VHH mixed with human TNF-alpha, binding to coated etanercept (TNFR2-Fc)

{"binder": "Q65B1 (VHH, not shown: small tags and cut ends, Family 1; purified from E. coli; parent of the ID series) VHH: EVQLVESGGGLVQPGGSLKLSCAASGFDFSSHWMYWVRQAPGKELEWLSEINTNGLITKYGDSVKGRFTVSRNNAANKMYLELTRLEPEDTALYYCARNQKGLNKGQGTQVTVSS", "unit": "nM", "EC50": 0.29}
{"binder": "Q65C7 (VHH, not shown: small tags and cut ends, Family 1; purified from E. coli) VHH: EVQLVESGGGLVQPGRSLRLSCTASGFDFSSHWMYWVRQAPGKGLEWVSEINTNGLITKYADFVKGRFTVSRDNAANTLYLEITRLEPEDTALYYCARNQKGLNKGQGTQVTVSS", "unit": "nM", "EC50": 0.35}
{"binder": "Q65F6 (VHH, not shown: small tags and cut ends, Family 2; purified from E. coli) VHH: EVQLVESGGGLVQPGGSLRLSCTASGFDFGIHWMYWVRQAPGKELEWVAEINTNGLITLYSDSVRGRFTASRDNANNALFLQMNDLKFEDTAVYYCAKSRNGAAKGQGTQVTVSS", "unit": "nM", "EC50": 13}
{"binder": "Q65E12 (VHH, not shown: small tags and cut ends, Family 2; purified from E. coli) VHH: EVQLVESGGGLVQPGGSLRLSCSASGFDFSIHWMYWVRQAPGKELEWVAEINTNGLITLYADSVKGRFTASRDNAKNALFLQMNDLKFEDTAVYYCAKSRNGAAGGQGTQVTVSS", "unit": "nM", "EC50": 47}
